test: Oral bioavailability in human subjects receiving phenobarbital tablets after having received phenobarbital infusion for […] withdrawal; format: ADME, organism-based; conditions: in vivo
assay readout: bioavailability
Write the quantity with the unit trailing the number.

State its bioavailability: CCC1(c2ccccc2)C(=O)NC(=O)NC1=O
100%

###

assay: Cmax in healthy human subjects (6 subjects) at 2.9 mg/kg, po by HPLC method; format: ADME, organism-based; design: dose 2.9 mg/kg, route oral; settings: in vivo
assay readout: Cmax (ng/mL)
Reply numerically in ng/mL, unit not repeated.

Read off the recorded Cmax for CCC1(c2ccccc2)C(=O)NC(=O)NC1=O
5500

###

assay: Tmax in adult human; assay type: ADME, organism-based; conditions: in vivo
assay readout: Tmax (h)
Respond numerically; units are h and should not be typed.

Answer with reported Tmax of CCC1(c2ccccc2)C(=O)NC(=O)NC1=O
50

###

experiment: Disposition rate constant at terminal phase in healthy human subjects (6 subjects) at 2.6 mg/kg, iv by HPLC method; type: ADME, organism-based; conditions: in vivo
assay readout: k el (s⁻¹)
# output: bare number, implied unit s⁻¹

Check the records and state k el for CCC1(c2ccccc2)C(=O)NC(=O)NC1=O
1.39e-06

###

test: Elimination half life in healthy human subjects (6 subjects) at 2.9 mg/kg, po measured during oral dose (period-3) by HPLC method; type: ADME, organism-based; details: in vivo, read-out: beta t1/2 (converted)
assay readout: half-life (h)
Supply the numeric figure in h, leaving out any unit text.

Output half-life of CCC1(c2ccccc2)C(=O)NC(=O)NC1=O
149

###

experiment: Total body clearance in healthy human subjects (6 subjects) at 2.6 mg/kg, iv by HPLC method; type: ADME, organism-based; details: in vivo
assay readout: clearance (mL/h/kg)
Kindly answer with a numeric value in mL/h/kg, unit omitted.

Supply recorded clearance for CCC1(c2ccccc2)C(=O)NC(=O)NC1=O here.
3

###

assay: Corrected oral bioavailability in healthy human subjects (6 subjects) at 2.9 mg/kg by HPLC method; format: ADME, organism-based; conditions: in vivo
assay readout: bioavailability (%)
Express the result in % but write the number alone.

Tell me bioavailability reported for CCC1(c2ccccc2)C(=O)NC(=O)NC1=O
94.9

###

assay: Terminal half life in healthy human subjects (6 subjects) at 2.6 mg/kg, iv by HPLC method; assay type: ADME, organism-based; settings: in vivo, read-out: beta t1/2 (converted)
assay readout: half-life (h)
Provide only the numeric value, understood in h.

Find the measured half-life of CCC1(c2ccccc2)C(=O)NC(=O)NC1=O [PHENOBARBITAL] and report it.
139

###

test: Apparent volume of distribution in healthy human subjects (6 subjects) at 2.6 mg/kg, iv by HPLC method; assay type: ADME, organism-based; details: in vivo, read-out: Vd(app)
assay readout: Vd (L/kg)
A number alone suffices; assume L/kg.

Report Vd for CCC1(c2ccccc2)C(=O)NC(=O)NC1=O
0.6

###

test: Disposition rate constant at terminal phase in healthy human subjects (6 subjects) at 2.9 mg/kg, po by HPLC method; type: ADME, organism-based; details: in vivo
assay readout: k el

Return the recorded k el value; entry: CCC1(c2ccccc2)C(=O)NC(=O)NC1=O
1.58e-06 s⁻¹

###

experiment: Tmax in healthy human subjects (6 subjects) at 2.9 mg/kg, po by HPLC method; format: ADME, organism-based; conditions: in vivo
assay readout: Tmax

Given the molecule CCC1(c2ccccc2)C(=O)NC(=O)NC1=O , write its reported Tmax.
2.3 h
